The measurements presented in this section are drawn from the supplement of paper PMC10126150.

- Tested on: ATP;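 note: ATP exposure 15 min at 22 °C before imaging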
- protocol-details: switch fluorescence ratio, 500 uM ATP over buffer (Cy3 cluster intensity, sum of 5 cycles each) (fold (ratio)); higher = stronger signal-on switching upon ATP binding; sequences stand for … in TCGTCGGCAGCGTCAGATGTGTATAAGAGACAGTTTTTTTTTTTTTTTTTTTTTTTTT…TC
- condition-summary: aptamer strand: ATP DNA aptamer (quencher-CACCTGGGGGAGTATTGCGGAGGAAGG + anchor), 100 nM annealed; ATP concentration: 500 uM
endpoint: switch fluorescence ratio
Just the number, please.

Reported ATP switch fluorescence ratio for item ACGCTTAGAC was 1.66

Observed switch fluorescence ratio on ATP, entry TGAGTGATTT , equals 1.02

Known value: ATP switch fluorescence ratio of the sequence CGTACTGAAA equals 1.04

Short answer on ATP for CGCGGGGCGG , switch fluorescence ratio: 1.02

Observed switch fluorescence ratio on ATP, entry TAAATTGATA , equals 0.992

The reported ATP switch fluorescence ratio of AATTATTGGC is 1.02

Item: GGGGTTTAGC | System: ATP | switch fluorescence ratio: 0.996

Bench note, ATP: CGTGGGGGTG , switch fluorescence ratio reads 0.993

Summary: ATTCTCCGGG , ATP, switch fluorescence ratio = 1.18

Form field switch fluorescence ratio for item GGGGGTACTT on ATP: 1

switch fluorescence ratio value, target or system ATP, for GGAACAGGTG : 3.49

The reported switch fluorescence ratio value, ATP, for TCCTTTAATC reads 1.98

Entry TTCAGGTTTT under ATP had switch fluorescence ratio of 0.99

Log: ATP, sequence TGGTGAATTT , switch fluorescence ratio = 1.02

Summary line: CCTGAGTTTG , ATP, reported switch fluorescence ratio = 1.01

Per the reported ATP data, ACATGAGCGG has switch fluorescence ratio of 0.971

Observed switch fluorescence ratio, ATP, AAGTCGATTG : 0.99

Bench note, ATP: entry TTGAAAGTG , its switch fluorescence ratio = 0.979

switch fluorescence ratio value, target or system ATP, for AGTCGGGGGT : 0.99

For CTCATATAGA on ATP, measured switch fluorescence ratio was 0.991

// assay ATP, entry GGGTTTGGGT , switch fluorescence ratio value = 1.01

Lab note: sequence AATTAGACGT tested on ATP; recorded switch fluorescence ratio was 0.988

The reported switch fluorescence ratio value, ATP, for TTTGGAAATT reads 1.43

ATP assay, sequence ATCGTCCCTT , recorded switch fluorescence ratio = 0.986

Result for TTCGAGAGTG , tested on ATP, switch fluorescence ratio: 0.945

Form field, switch fluorescence ratio with ATP, item TTGGTATAGC : 1

The observed switch fluorescence ratio for TTCCGTATGA when tested with ATP stands at 1.05

Param item: TATCGGCGAG ; param system: ATP; output switch fluorescence ratio: 1.02

Tested system ATP; switch fluorescence ratio recorded for TTTGTCATTC was 1

Bench note, ATP: entry GCCGATAGGT , its switch fluorescence ratio = 1.08

Measured switch fluorescence ratio for this entry AGGGTTTTCT on ATP: 1

ATP assay, sequence GAGCGCTTGG , recorded switch fluorescence ratio = 1.01

Per the reported ATP data, GTTTCAGGCT has switch fluorescence ratio of 0.989

Summary line: TGTTTAAACG , ATP, reported switch fluorescence ratio = 1.02

Measured switch fluorescence ratio for this entry CGTCTAGAA on ATP: 0.963

Readout switch fluorescence ratio for GTGCTAGGGT , test system ATP, was 0.988

Considering AATTCCATTT , its switch fluorescence ratio with ATP was recorded as 1.01

Test item TAGGGGATTG ; ATP; reported switch fluorescence ratio was 1

Kindly note: ATP, TAGTTTTTAT , switch fluorescence ratio value reported: 1.02

Let me check: TTGTTTGAAA , system ATP, measured switch fluorescence ratio is 1

Item CAGATGGTGT ; assay system ATP; switch fluorescence ratio reported as 1.02

Result for AAGTGGAGGC , tested on ATP, switch fluorescence ratio: 1.04

Response field switch fluorescence ratio (ATP) for item ATAGTATAGA : 1.01

// returns switch fluorescence ratio for AGACGTGTGT with ATP; value = 1.02

ATP data for CGTGTTGTAG ; its switch fluorescence ratio: 1.02

Known value: ATP switch fluorescence ratio of the sequence ATGATGGAAG equals 0.982

// returns switch fluorescence ratio for GTTTTCGAGC with ATP; value = 1.11

// assay ATP, entry TCGTTGCGAG , switch fluorescence ratio value = 0.99

Form field switch fluorescence ratio for item TTTGATAGT on ATP: 1

Entry GCTGCTGGCC , ATP data, switch fluorescence ratio value: 0.999

Given the sequence GGGTCGGGTT and test system ATP, the measured switch fluorescence ratio is 0.972

Considering CAGGCTATTT , its switch fluorescence ratio with ATP was recorded as 1.03

# switch fluorescence ratio measured on ATP for item CTTGGCGAGA = 1.01

Summary line: TGTATTGTGG , ATP, reported switch fluorescence ratio = 0.987

Sample TAACTGGGTT , system: ATP. Its switch fluorescence ratio is 1.02

So the reported switch fluorescence ratio for TTAAAGCGCG , on ATP, turned out to be 1.04

The sequence GGTTACCTTC on ATP: switch fluorescence ratio was 1.36

Observed switch fluorescence ratio on ATP, entry TAGGGCTGTG , equals 0.995

Entry GTATAATTTG ; assay system ATP; switch fluorescence ratio recorded at 0.993

Entry CAGTAAGTCT ; assay system ATP; switch fluorescence ratio recorded at 1.05

Hey, ATP data for TTACATCTGG : switch fluorescence ratio came out at 0.984

Result for CTTATTAGGG , tested on ATP, switch fluorescence ratio: 0.986

Log: ATP, sequence TGGGAAGTCA , switch fluorescence ratio = 0.991

Bench note, ATP: entry ACGGCTTAGG , its switch fluorescence ratio = 1.03

The value of switch fluorescence ratio recorded for CCAGGGACGA when tested on ATP reads 1.02

Reading of switch fluorescence ratio for TCTATTCTCC with ATP: 1.52

# lookup: TGGCTTCGGC on ATP, switch fluorescence ratio = 0.998

Kindly note: ATP, TGGGTATTCC , switch fluorescence ratio value reported: 1.02

Bench note, ATP: entry GGACACAGGC , its switch fluorescence ratio = 1.01

Bench note, ATP: TTTTTACGAA , switch fluorescence ratio reads 1.01

Per the reported ATP data, ACTTCTAGCG has switch fluorescence ratio of 1.02

Let me check: GCTCACAGAA , system ATP, measured switch fluorescence ratio is 1.02

# TAAAAAGCGG with ATP: switch fluorescence ratio is 1.01

switch fluorescence ratio on ATP for ACGAGTTAGT is 0.993

Noted switch fluorescence ratio for TAATGCCTGT , tested on ATP: 0.979

Assay ATP, sample AAGGTGCGGG , switch fluorescence ratio read: 0.999

Summary line: TTTCGGGGAT , ATP, reported switch fluorescence ratio = 1.03

switch fluorescence ratio value, target or system ATP, for ACGCCCACTA : 1.38

Case GTTCGGGGCC , ATP, switch fluorescence ratio recorded as 1.01

Form field, switch fluorescence ratio with ATP, item AGGGGTGGGA : 1.01

Assay ATP, sample TTGGCTTTTT , switch fluorescence ratio read: 1.01

Lab entry: ATP assay, sequence ATTGATTTCT , switch fluorescence ratio = 1.01

Bench note, ATP: entry ATGTAGAAAT , its switch fluorescence ratio = 1.05

Reading of switch fluorescence ratio for GTGACCAGAA with ATP: 0.983

Recorded switch fluorescence ratio for TTTTTTTCTC on ATP was 0.992

Value sought: switch fluorescence ratio, system ATP, item CCGTGGGTTT . Result: 1.06

----------
- System: ATP;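 note: ATP exposure 15 min at 22 °C before imaging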
- protocol-details: switch fluorescence ratio, 500 uM ATP over buffer (Cy3 cluster intensity, sum of 5 cycles each) (fold (ratio)); higher = stronger signal-on switching upon ATP binding; sequences stand for … in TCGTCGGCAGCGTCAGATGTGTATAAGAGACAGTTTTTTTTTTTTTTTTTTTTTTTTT…TC
- condition-summary: aptamer strand: ATP DNA aptamer (quencher-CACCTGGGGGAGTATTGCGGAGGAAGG + anchor), 100 nM annealed; ATP concentration: 500 uM
Field: switch fluorescence ratio. Provide a value for each of the sequences that follow.
Provide a numeric answer; units are not to be included.

Summary: TCGGTCGGGC , ATP, switch fluorescence ratio = 1.01

Readout switch fluorescence ratio for TCGTGTACTA , test system ATP, was 1.02

Reported switch fluorescence ratio (ATP) for entry CGCTATTCGG is 1.04

The reported ATP switch fluorescence ratio of AGTTGTTAGT is 0.969

Tested on ATP: GCTCTAGATC . Observed switch fluorescence ratio: 1.35

Measured on ATP, TAAATTTAAG has a documented switch fluorescence ratio of 1

The value of switch fluorescence ratio recorded for GAAAAAAGGA when tested on ATP reads 0.981

# switch fluorescence ratio measured on ATP for item GCTTCCGGCC = 1.15

Let me check: GCAACTGATC , system ATP, measured switch fluorescence ratio is 1.19

Record TTACCAGAGT has ATP switch fluorescence ratio equal to 1.02

Test item AACGCTCGTC ; ATP; reported switch fluorescence ratio was 1.02

Bench note, ATP: entry TACCTCTTAA , its switch fluorescence ratio = 1.05

ATP assay, sequence CGACCTACAG , recorded switch fluorescence ratio = 1.02

So the reported switch fluorescence ratio for CTTTTCTGTT , on ATP, turned out to be 0.986

So the reported switch fluorescence ratio for CGTTCAATGG , on ATP, turned out to be 1.23

Kindly note: ATP, TGTATATTTT , switch fluorescence ratio value reported: 0.98

For the sequence TGGACAGACA , the measured switch fluorescence ratio on ATP was 1.11

Query GTATGAATGT on ATP; switch fluorescence ratio returned: 0.985

The reported switch fluorescence ratio value, ATP, for CGGTTTAGGC reads 0.93

switch fluorescence ratio for ATP with input TAAGATCTGG equals 1.01

With ATP as the test system, CGTGTTGGAT showed switch fluorescence ratio of 0.997

Per the reported ATP data, AAAAATGGTT has switch fluorescence ratio of 1.02

Tested on ATP, the item AGGGGACGGG showed switch fluorescence ratio equal to 1.05

Tested on ATP, the item TTAAAATTGC showed switch fluorescence ratio equal to 1.08

Response field switch fluorescence ratio (ATP) for item TAGCGTATGA : 1.03

Entry ACCGGACATG , ATP data, switch fluorescence ratio value: 1.07

Value sought: switch fluorescence ratio, system ATP, item CGGCCAGGAA . Result: 1.05

Simply: AAGGGGAGAA , ATP, switch fluorescence ratio = 0.987

Here TGGTTTGGAA was tested on ATP, and its switch fluorescence ratio came to 0.998

Tested on ATP: CCGTTTGCAG . Observed switch fluorescence ratio: 1.13

Hey, ATP data for GAGGCCCTGA : switch fluorescence ratio came out at 0.971

Tested on ATP: AGGGTGCTGT . Observed switch fluorescence ratio: 1.02

# TTTCATTCTC with ATP: switch fluorescence ratio is 0.991

# switch fluorescence ratio measured on ATP for item TATGGCGACA = 1.01

The measured switch fluorescence ratio that GGTTTCATAT showed for ATP is 0.996

The recorded switch fluorescence ratio with ATP for CCTATAAAGG was 1.03

Entry TCTGAAGATC : switch fluorescence ratio on ATP = 1.06

Known value: ATP switch fluorescence ratio of the sequence ATAATGGGTT equals 1.05

// sequence GGAACGTGGT , assay ATP, switch fluorescence ratio value: 0.971

Given the sequence TTTGTGGTCT and test system ATP, the measured switch fluorescence ratio is 0.991

Response field switch fluorescence ratio (ATP) for item CCACCAATTT : 1.8

With ATP as the test system, GTGATACGGG showed switch fluorescence ratio of 1.04

Entry TCAAAGTCAT under ATP had switch fluorescence ratio of 0.991

Lab note: sequence TGATCTTGGA tested on ATP; recorded switch fluorescence ratio was 1.06

Observed switch fluorescence ratio on ATP, entry TAACGTTTAT , equals 1.01

So the reported switch fluorescence ratio for GGATCGTCGG , on ATP, turned out to be 0.96

The recorded switch fluorescence ratio with ATP for AAAAGTGTTT was 0.99

Item CACGTATTCA was tested on ATP; the reported switch fluorescence ratio is 1.15

Entry GAGGAAAGGG , ATP data, switch fluorescence ratio value: 0.989
